FYI, the data here is from patent US20240376198A1.

# tested-target: T1, mouse NKp46 (mouse, UniProt Q8C567 17-325)
# T1 construct: whole, on cells
# T1 sequence (looked up): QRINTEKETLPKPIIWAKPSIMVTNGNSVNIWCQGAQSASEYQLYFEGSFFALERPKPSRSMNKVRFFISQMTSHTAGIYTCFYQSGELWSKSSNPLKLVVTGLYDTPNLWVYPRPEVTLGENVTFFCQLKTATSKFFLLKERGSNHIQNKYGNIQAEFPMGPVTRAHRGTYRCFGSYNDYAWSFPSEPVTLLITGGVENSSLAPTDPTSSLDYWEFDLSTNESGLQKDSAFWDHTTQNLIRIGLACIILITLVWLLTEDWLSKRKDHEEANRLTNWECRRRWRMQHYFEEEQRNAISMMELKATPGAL
# test-method-notes: flow cytometry, HEK293F cells transfected with mouse NKp46
attribute-measured: Kd (nM)
Field format: number, assumed nM, no unit text.

**Query** Find the measured Kd of NKp46-hz5D7v9-Fc* (Fc fusion, VHH-Fc fusion with an IgG1 Fc lacking a hinge (Fc*)) EVQLVESGGGEVQPGGSLRLSCAASGRTFASAAMGWFRQAPGKEREFVAAISRSVDDTYYADSVKGRFTISRDNAKNTVYLQMSSLRAEDTAVYYCAAVVPTYGNNIYVHSAAYNYWGQGTLVTVKPGGGGPSVFLFPPKPKDTLMISRTPEVTCVVVDVSHEDPEVKFNWYVDGVEVHNAKTKPREEQYNSTYRVVSVLTVLHQDWLNGKEYKCKVSNKALPAPIEKTISKAKGQPREPQVYTLPPSRDELTKNQVSLTCLVKGFYPSDIAVEWESNGQPENNYKTTPPVLDSDGSFFLYSKLTVDKSRWQQGNVFSCSVMHEALHNHYTQKSLSLSPG and report it.
**Result** 0.941
